ASSAYED_SYSTEM: Recombinant Hepatic Lipase (Homo sapiens, UniProt P11150)
Sequence (P11150 23-499, species assumed): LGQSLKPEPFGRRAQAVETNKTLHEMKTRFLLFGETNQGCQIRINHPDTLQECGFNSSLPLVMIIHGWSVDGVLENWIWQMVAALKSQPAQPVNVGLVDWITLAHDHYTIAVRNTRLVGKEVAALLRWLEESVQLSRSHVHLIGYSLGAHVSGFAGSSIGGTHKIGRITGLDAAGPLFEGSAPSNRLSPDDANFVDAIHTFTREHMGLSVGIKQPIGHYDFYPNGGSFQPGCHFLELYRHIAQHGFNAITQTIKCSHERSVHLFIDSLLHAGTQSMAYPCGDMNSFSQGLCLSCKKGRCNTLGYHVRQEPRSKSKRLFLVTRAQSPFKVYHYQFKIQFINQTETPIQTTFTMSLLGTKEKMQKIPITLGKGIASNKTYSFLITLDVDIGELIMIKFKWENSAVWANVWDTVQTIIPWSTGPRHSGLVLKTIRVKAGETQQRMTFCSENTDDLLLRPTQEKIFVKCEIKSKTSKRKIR
EXPERIMENT_SUMMARY: Hepatic Lipase Phospholipase Assay
CONDITION_LABEL: ThioPEG substrate, DTNB read at 412 nm, pH 8.3, 37° C., HL 12.5 nM
Kindly state IC50 for each of the entries shown.
State the answer as a number, implicitly in nM.

Q: Reported IC50 for CCCCCNC(=O)n1sc2cc(Cl)ccc2c1=O : what is it?
Result: 532

Q: Looking for the measured IC50 of CCCCCNC(=O)n1sc2ccccc2c1=O [drawing 9] , can you help?
Result: 879

Q: Tell me the measured IC50 of CC(C)NC(=O)n1sc2cc(Cl)ccc2c1=O , please.
Result: 626

Q: What does the data say about its IC50? Entry: Cc1cccc(CNC(=O)n2sc3ccccc3c2=O)c1
Result: 409

Q: Entry CCCCCCCCNC(=O)n1sc2ccccc2c1=O : reported IC50 = ?
Result: 649

Q: Looking for the measured IC50 of O=C(NCCCCc1ccccc1)n1sc2ccccc2c1=O [drawing 21] , can you help?
Result: 458

Q: Quick check: IC50 of CCCCCCCNC(=O)n1sc2ccccc2c1=O ?
Result: 757

====

Would you mind telling me the reported pIC50 of each entry?
ASSAYED_SYSTEM: Recombinant Hepatic Lipase (Homo sapiens)
EXPERIMENT_SUMMARY: Hepatic Lipase Phospholipase Assay
CONDITION_LABEL: ThioPEG substrate, DTNB read at 412 nm, pH 8.3, 37° C., HL 12.5 nM
pIC50 here: minus log base 10 of the concentration, concentration in moles per litre.

Q: # lookup: pIC50 of O=C(NCCCCC1CCCCC1)n1sc2ccccc2c1=O [drawing 22]
Result: 6.32

Q: Any idea what pIC50 was measured for CCCCCCCCCCCCNC(=O)n1sc2ccccc2c1=O ?
Result: 6.03

Q: Bench note: what pIC50 did CCCCCCNC(=O)n1sc2cc(Cl)ccc2c1=O show?
Result: 6.48

Q: Sample CC(C)CCCCNC(=O)n1sc2ccccc2c1=O — what was its pIC50?
Result: 6.21

Q: Could you share which pIC50 value was measured for Cc1ccccc1CNC(=O)n1sc2ccccc2c1=O ?
Result: 6.74

Q: Field request: pIC50 | item: O=C(NC1CCCCC1)n1sc2cc(Cl)ccc2c1=O
Result: 6.38

Q: Quick one: pIC50 for O=C(NCc1ccccc1)n1sc2cc(Cl)ccc2c1=O ?
Result: 6.05
